system: 324938-238-R-J1-PDC complex spheroids viability; assay: Anticancer human tumor 324938-238-R-J1-PDC patient-derived bladder carcinoma cell line growth inhibition [CLK]; settings: second compound 0.1 µM; first compound 1 µM; active compounds read low;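 also: viability read after seven days of drug exposure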
Would you mind classing the entries by viability, T/C? Ranges: lower range (below 20%), middle range (20% to below 40%), upper range (40% or more)

Recorded results for 5 molecules are shown here.
CCc1c2c(nc3ccc(O)cc13)-c1cc3c(c(=O)n1C2)COC(=O)[C@]3(O)CC + CNC(=O)c1ccc(Nc2nc(OC3CCCC3)c3c(-c4ccc5nc(C)oc5c4)c[nH]c3n2)c(OC)c1 :: lower range
CCCS(=O)(=O)Nc1ccc(F)c(C(=O)c2c[nH]c3ncc(-c4ccc(Cl)cc4)cc23)c1F + CNC(=O)c1ccc(Nc2nc(OC3CCCC3)c3c(-c4ccc5nc(C)oc5c4)c[nH]c3n2)c(OC)c1 :: middle range
C#Cc1c(F)ccc2cc(O)cc(-c3ncc4c(N5CC6CCC(C5)N6)nc(OCC56CCCN5CC(F)C6)nc4c3F)c12 (stereo not given) + CN1CCN(c2cc(C(=O)Nc3cc4cc(-c5cnn(C)c5)ccc4cn3)ccn2)CC1 :: upper range
CCc1c2c(nc3ccc(O)cc13)-c1cc3c(c(=O)n1C2)COC(=O)[C@]3(O)CC + CN1CCN(c2cc(C(=O)Nc3cc4cc(-c5cnn(C)c5)ccc4cn3)ccn2)CC1 :: lower range
CCCS(=O)(=O)Nc1ccc(F)c(C(=O)c2c[nH]c3ncc(-c4ccc(Cl)cc4)cc23)c1F + CN1CCN(c2cc(C(=O)Nc3cc4cc(-c5cnn(C)c5)ccc4cn3)ccn2)CC1 :: upper range

Request: Class? Entry: CC(=O)O[C@H]1C(=O)[C@@]2(C)[C@H]([C@H](OC(=O)c3ccccc3)[C@]3(O)C[C@H](OC(=O)[C@H](O)[C@@H](NC(=O)c4ccccc4)c4ccccc4)C(C)=C1C3(C)C)[C@]1(OC(C)=O)CO[C@@H]1C[C@@H]2O + CNC(=O)c1ccc(Nc2nc(OC3CCCC3)c3c(-c4ccc5nc(C)oc5c4)c[nH]c3n2)c(OC)c1
Result: middle range

Request: Sort C#Cc1c(F)ccc2cc(O)cc(-c3ncc4c(N5CC6CCC(C5)N6)nc(OCC56CCCN5CC(F)C6)nc4c3F)c12 (stereo not given) + CNC(=O)c1ccc(Nc2nc(OC3CCCC3)c3c(-c4ccc5nc(C)oc5c4)c[nH]c3n2)c(OC)c1 into one of the categories.
Result: middle range

Request: Which viability, T/C band matches CCN1CCN(Cc2ccc(Nc3ncc(F)c(-c4cc(F)c5nc(C)n(C(C)C)c5c4)n3)nc2)CC1 + CNC(=O)c1ccc(Nc2nc(OC3CCCC3)c3c(-c4ccc5nc(C)oc5c4)c[nH]c3n2)c(OC)c1 ?
Result: middle range
